Molecular target: T1, recombinant human C1r2s2 tetramer (human, UniProt P09871 16-688; P00736 18-705)
T1 construct: C1s and C1r co-expressed in HEK293/FreeStyle 293-F and purified from conditioned medium
T1 chain 1: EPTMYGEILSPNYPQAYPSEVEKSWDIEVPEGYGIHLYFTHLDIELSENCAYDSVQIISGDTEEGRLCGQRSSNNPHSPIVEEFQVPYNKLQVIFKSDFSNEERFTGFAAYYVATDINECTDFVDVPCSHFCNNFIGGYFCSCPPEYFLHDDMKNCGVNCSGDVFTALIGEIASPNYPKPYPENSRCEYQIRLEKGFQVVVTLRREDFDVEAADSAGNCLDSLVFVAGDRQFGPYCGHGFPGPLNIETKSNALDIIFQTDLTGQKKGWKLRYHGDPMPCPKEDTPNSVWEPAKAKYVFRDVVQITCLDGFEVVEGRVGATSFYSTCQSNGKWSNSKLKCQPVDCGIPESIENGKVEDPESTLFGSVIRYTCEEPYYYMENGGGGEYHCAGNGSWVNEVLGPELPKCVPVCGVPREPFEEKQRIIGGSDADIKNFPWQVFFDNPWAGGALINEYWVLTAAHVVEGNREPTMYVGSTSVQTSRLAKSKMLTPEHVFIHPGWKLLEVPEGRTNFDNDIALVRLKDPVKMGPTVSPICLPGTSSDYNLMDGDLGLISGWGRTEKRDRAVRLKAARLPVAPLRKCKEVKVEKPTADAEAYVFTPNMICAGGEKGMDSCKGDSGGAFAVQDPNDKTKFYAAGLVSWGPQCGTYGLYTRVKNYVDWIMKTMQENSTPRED
T1 chain 2: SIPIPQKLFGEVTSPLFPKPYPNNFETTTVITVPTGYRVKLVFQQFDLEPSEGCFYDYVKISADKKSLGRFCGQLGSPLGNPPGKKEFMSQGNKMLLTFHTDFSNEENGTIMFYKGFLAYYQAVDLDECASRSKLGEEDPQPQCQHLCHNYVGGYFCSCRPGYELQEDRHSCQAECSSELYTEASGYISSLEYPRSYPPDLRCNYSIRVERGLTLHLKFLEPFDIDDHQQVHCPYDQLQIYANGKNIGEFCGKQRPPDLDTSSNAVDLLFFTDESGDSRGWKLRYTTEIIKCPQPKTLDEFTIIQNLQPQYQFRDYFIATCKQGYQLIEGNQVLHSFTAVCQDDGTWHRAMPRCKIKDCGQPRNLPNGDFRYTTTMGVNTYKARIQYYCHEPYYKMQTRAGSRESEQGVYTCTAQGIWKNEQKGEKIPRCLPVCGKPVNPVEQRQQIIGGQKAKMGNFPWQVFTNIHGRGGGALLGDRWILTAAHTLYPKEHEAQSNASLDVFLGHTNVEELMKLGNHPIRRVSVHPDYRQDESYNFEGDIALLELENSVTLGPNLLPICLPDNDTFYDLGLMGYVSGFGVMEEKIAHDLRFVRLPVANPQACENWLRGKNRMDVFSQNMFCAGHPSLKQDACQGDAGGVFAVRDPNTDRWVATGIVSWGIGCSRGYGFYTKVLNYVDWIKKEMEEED
Assay: SPR (BIACORE T200), 37 C, ratio of KD at pH 5.8 to KD at pH 7.4
quantity: KD (pH 5.8)/KD (pH 7.4)
In your answer, state the number alone without any accompanying words.

The following binders have reported results that may help.
COS0637pHv2-TT91R (antibody, V domains shown) VH: QVQLVESGGGVVQPGRSLRLSCAASGFRFSAYAMNWIRQPPGKGLEWIGLIYGKGSTFYASWAKERVTISVDTSKNQFSLKLSSVTAADTAVYYCARGRSVNYNSDFHLWGQGTLVTVSS VL: DIQMTQSPSSLSASVGDRVTITCQASQSLHDKKNLAWYQQKPGQPPKLLIYGASTLESGVPSRFSGSGSGTDFTLTISSLQPEDFATYYCQGEFSCSSADCNTFGQGTKVEIKR | 44
COS0637pHv1-TT91R (antibody, V domains shown) VH: QVQLVESGGGVVQPGRSLRLSCAASGFTFSAYAMNWIRQPPGKGLEWIGLIYGSKSTFYASWAEGRVTISVDTSKNQFSLKLSSVTAADTAVYYCARGRSKNYNSDFHLWGQGTLVTVSS VL: DIQMTQSPSSLSASVGDRVTITCQASQSLHDKKNLAWYQQKPGQPPKLLIYGASTLESGVPSRFSGSGSGTDFTLTISSLQPEDFATYYCQGEFSCSSADCNTFGQGTKVEIKR | 209

Lab note: next binder to report on.
Given COS0637h-TT91R (antibody, human IgG1, V domains shown, Humanized COS0637cc; modified human IgG1 CH TT91R, human CL SK1) VH: QVQLVESGGGVVQPGRSLRLSCAASGFTFSAYAMNWIRQPPGKGLEWIGLIYGSGSTFYASWAKGRVTISVDTSKNQFSLKLSSVTAADTAVYYCARGRSVNYNSDFKLWGQGTLVTVSS VL: DIQMTQSPSSLSASVGDRVTITCQASQSLHDKKNLAWYQQKPGQPPKLLIYGASTLESGVPSRFSGSGSGTDFTLTISSLQPEDFATYYCQGEFSCSSADCNTFGQGTKVEIKR , state its recorded KD (pH 5.8)/KD (pH 7.4). 14

The measured values listed here are drawn from patent US20240092889A1.
